# credit: paper PMC7810383

# System: XIAP
# Assay type: biochemical, human
quantity-kind: Ubiquitination of streptavidin-bound peptide by XIAP (anti-ubiquitin immunoblot)

| substance | tgt | experimental-value |
| --- | --- | --- |
| Ac or H-AAAGAAATHLKK-K-(Biotin)-NH2 [PIGS Nt-Ac biotinylated peptide] | XIAP | not ubiquitinated |
| H-AAAGAAATHLKK-K-(Biotin)-NH2 [PIGS Nt-free biotinylated peptide] | XIAP | not ubiquitinated |
| H-AVPAALILREKK-K(Biotin)-NH2 [COMMD10 Nt-free biotinylated peptide] | XIAP | strongly ubiquitinated |
| H-AAPEEHDSPTKK-K-(Biotin)-NH2 [DDX47 Nt-free biotinylated peptide] | XIAP | strongly ubiquitinated |
